Molecular target: Human VPS34 (Homo sapiens (Human), UniProt Q8NEB9)
Sequence (Q8NEB9 whole entry): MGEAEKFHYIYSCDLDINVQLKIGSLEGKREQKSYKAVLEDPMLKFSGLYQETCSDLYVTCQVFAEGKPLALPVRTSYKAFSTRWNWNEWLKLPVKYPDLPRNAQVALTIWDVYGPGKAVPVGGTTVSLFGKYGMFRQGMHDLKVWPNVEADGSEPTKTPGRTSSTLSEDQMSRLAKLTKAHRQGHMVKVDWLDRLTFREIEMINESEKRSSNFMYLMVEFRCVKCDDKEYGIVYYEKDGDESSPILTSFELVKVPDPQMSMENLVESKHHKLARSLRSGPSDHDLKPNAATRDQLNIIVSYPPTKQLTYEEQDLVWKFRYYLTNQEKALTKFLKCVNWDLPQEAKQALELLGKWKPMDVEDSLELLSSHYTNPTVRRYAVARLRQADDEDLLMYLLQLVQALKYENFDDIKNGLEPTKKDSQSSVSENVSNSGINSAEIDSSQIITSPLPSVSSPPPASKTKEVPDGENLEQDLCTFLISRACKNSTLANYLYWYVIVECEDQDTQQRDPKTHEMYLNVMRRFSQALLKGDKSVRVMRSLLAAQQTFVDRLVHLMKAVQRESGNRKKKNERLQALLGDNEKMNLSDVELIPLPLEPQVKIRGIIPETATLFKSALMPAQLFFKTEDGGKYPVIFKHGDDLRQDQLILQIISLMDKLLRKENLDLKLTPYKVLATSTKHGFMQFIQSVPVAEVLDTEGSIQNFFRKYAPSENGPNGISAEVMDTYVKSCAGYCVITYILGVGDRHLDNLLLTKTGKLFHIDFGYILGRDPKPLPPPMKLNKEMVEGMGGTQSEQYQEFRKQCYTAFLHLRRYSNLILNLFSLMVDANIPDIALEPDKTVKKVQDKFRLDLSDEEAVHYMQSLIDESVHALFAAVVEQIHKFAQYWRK
Test: Human VPS34 enzyme assay (Adapta TR-FRET)
Format: biochemical
Conditions: compound concentration 1.11 μM; read-out: Percent Inhibition
Reported Metric: inhibition at 1.11 µM (%)

[
  {
    "Compound": "CC(=O)Nc1cc(-c2cnc(Cl)c(N3CCCNS3(=O)=O)c2C)ccn1 [Compound I-473]",
    "Target System": "Human VPS34 (Homo sapiens (Human), UniProt Q8NEB9)",
    "inhibition at 1.11 µM [%]": 87
  },
  {
    "Compound": "CC(=O)Nc1cc(-c2cnc(C)c(NS(=O)(=O)N(C)c3ccccc3)c2)ccn1 [Compound I-494]",
    "Target System": "Human VPS34 (Homo sapiens (Human), UniProt Q8NEB9)",
    "inhibition at 1.11 µM [%]": 91
  }
]

P. CC(=O)Nc1cc(-c2cnc(NCC3CC3)c(N)c2)ccn1 [Compound I-53]
Q. Cc1nccc(Nc2cc(-c3cncc(C(C)Oc4ccccc4Cl)c3)ccn2)n1 (centres unmarked) [Compound I-336]
Between P and Q , which one shows the smaller inhibition at 1.11 µM number? Please respond with the label that marks your chosen entry.
P

* * *

Biological target: Human VPS34 (Homo sapiens (Human))
Assay: Human VPS34 enzyme assay (Adapta TR-FRET)
Type: biochemical
Conditions: compound concentration 1.11 μM; read-out: Percent Inhibition
Reported Metric: inhibition at 1.11 µM

Take a look at these entries with their results.
[
  {
    "Compound": "CC(=O)Nc1cc(-c2cnc(N(C)C)c(C(=O)N(C)C)c2)ccn1 [Compound I-162]",
    "Reported Metric": "inhibition at 1.11 µM",
    "Result": "> 99%"
  },
  {
    "Compound": "Cc1ncc(-c2ccnc(-n3cnc4c(C)nccc43)c2)cc1NS(=O)(=O)N(C)C [Compound I-263]",
    "Reported Metric": "inhibition at 1.11 µM",
    "Result": "53%"
  },
  {
    "Compound": "CCOC(=O)Nc1cc(-c2cnc(C)c(NS(=O)(=O)N(C)C)c2)ccn1 [Compound I-364]",
    "Reported Metric": "inhibition at 1.11 µM",
    "Result": "> 99%"
  },
  {
    "Compound": "CC(=O)Nc1cc(-c2cncc(S(=O)(=O)N(C)c3ccccc3)c2)ccn1 [Compound I-365]",
    "Reported Metric": "inhibition at 1.11 µM",
    "Result": "> 99%"
  },
  {
    "Compound": "CC(=O)Nc1cc(-c2cnc(Cl)c(N3CCCN(C)S3(=O)=O)c2)ccn1 [Compound I-467]",
    "Reported Metric": "inhibition at 1.11 µM",
    "Result": "> 99%"
  },
  {
    "Compound": "CNC(=O)c1cc(-c2ccnc(NC(C)=O)c2)cnc1N [Compound I-57]",
    "Reported Metric": "inhibition at 1.11 µM",
    "Result": "> 99%"
  }
]

Read off the recorded inhibition at 1.11 µM for Cc1nccc(Nc2cc(-c3cnc(O)c(S(=O)(=O)NC4CCC4)c3)ccn2)n1 [Compound I-279]
93%

# return recorded inhibition at 1.11 µM for input COC(=O)Nc1cc(-c2cnc(C)c(NS(=O)(=O)N(C)C)c2)ccn1 [Compound I-241]
96%
